tested.target: KRAS (WT)::SOS1 (Homo sapiens (Human), UniProt P01116, C118S)
Sequence (P01116 other isoform, or with tags, fused parts or gaps C118S): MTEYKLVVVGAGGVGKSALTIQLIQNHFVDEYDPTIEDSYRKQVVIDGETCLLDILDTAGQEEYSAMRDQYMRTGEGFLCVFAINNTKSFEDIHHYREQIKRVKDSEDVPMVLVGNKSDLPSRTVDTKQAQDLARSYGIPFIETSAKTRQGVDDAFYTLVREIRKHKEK
test: KRAS::SOS1 AlphaScreen binding assay, KRAS WT
readout.label: IC50 (nM)

// below: answered compounds
C[C@H](Oc1cc(N2CCN(C)C3(COC3)C2)nc(-c2noc3c2CCC[C@@]32CCCc3sc(N)c(C#N)c32)n1)[C@@H]1CCCN1C [II-13] | 3
C[C@H](Oc1cc([C@@H]2CCOC2)nc(-c2onc3c2CCC[C@@]32CCCc3sc(N)c(C#N)c32)n1)[C@@H]1CCCN1C [I-22] | 3
COCCNC(=O)c1ccn(-c2cc(O[C@@H](C)[C@@H]3CCCN3C)nc(-c3noc4c3CCC[C@@]43CCCc4sc(N)c(C#N)c43)n2)n1 [II-195] | 3

(1) C[C@H](Oc1cc(N2CCNC3(CC3)C2)nc(-c2onc3c2CCC[C@@]32CCCc3sc(N)c(C#N)c32)n1)[C@@H]1C[C@@H](F)CN1C [I-45]
(2) C[C@@H]1CN(c2nc(-c3noc4c3CCC[C@@]43CCCc4sc(N)c(C#N)c43)nc(O[C@@H](C)[C@@H]3C[C@@H](F)CN3C)c2F)CC2(CC2)N1 [II-158]
Query: Which of these two has the smaller recorded IC50: 1 or 2 ? Respond with the label that goes with your answer.
Response: 2
(2: 4 nM, 1: 6 nM)

(1) C[C@H](Oc1nc(-c2noc3c2CCC[C@@]32CCCc3sc(N)c(C#N)c32)nc(N2CCNC3(CC3)C2)c1Cl)[C@@H]1C[C@@H](F)CN1C [II-156]
(2) C[C@H](Oc1cc(-n2cc3c(n2)CCN(C)C3)nc(-c2noc3c2CCC[C@@]32CCCc3sc(N)c(C#N)c32)n1)[C@@H]1CCCN1C [II-141]
Query: // max by IC50 over [ 1 , 2 ] Please reply using the label of the selected record.
Response: 1

(P) C[C@H](Oc1cc(N2CCNC3(CC3)C2)nc(-c2noc3c2CCC[C@@]32CCCc3sc(N)c(C#N)c32)n1)[C@@H]1C[C@@H](F)CN1C [II-165]
(Q) CO[C@@H]1C[C@@H]([C@H](C)Oc2cc(N3CCN(C)C4(CC4)C3)nc(-c3noc4c3CCC[C@@]43CCCc4sc(N)c(C#N)c43)n2)N(C)C1 [II-152]
Query: Of P and Q , whose reported IC50 is the larger number? State the label of the item chosen.
Response: Q
(Q: 14 nM, P: 5 nM)
